Provide the recorded Signal (ppm) for the entries that follow.
Experiment: Screening of beta-hydroxy carboxylate analogs for CEST contrast (Table 4A)
Conditions: Concentration 10 mM
One number for each entry, in ppm.

Guide cases for Signal (ppm), answers given:
O=C(O)c1cc(Cl)cc(Cl)c1O ... 10.3
O=C(O)c1cc(O)ccc1O ... 8.5
O=C(O)c1cccc(F)c1O ... 9.5
O=C(O)c1ccc(O)c(/C=N/CC/N=C/c2cc(C(=O)O)ccc2O)c1 ... 7.8
O=Cc1cccc(C(=O)O)c1O ... 10.5

Please give Signal (ppm), item by item, for the list that follows.
1. Nc1cccc(C(=O)O)c1O
2. O=C(O)c1cc([N+](=O)[O-])ccc1O
3. O=C(O)c1cc(Cl)ccc1O
4. COc1cccc(C(=O)O)c1O

A.
9.0
10.3
9.0
9.3

All values here come from patent US10188754B2.
